# GI50 annotations
System: SN12C renal
Assay: NCI tumour cell line growth inhibition, 48 h

Worked set:
compound	observed
COc1ccc(/C=C(/C(=O)N2CCCC2)c2cc(OC)c(OC)c(OC)c2)cc1N	4.86 µM
CC(=O)OCC1OC(OC2CC3C(C)(C)C(OC(C)=O)CC[C@]3(C)C3CCC45CC4(CC[C@H]5C(C)CC(O)C4OC4(C)C)[C@]23C)C(O)C(O)C1O (some centres undefined)	4.44 µM
O=C1c2ccccc2S(=O)(=O)N1CSC(=S)N1CCCC1	> 100 µM
Cn1ccc(=Nc2ccc(NC(=O)c3ccc(N=c4ccn(C)c5ccc([N+](=O)[O-])cc45)cc3)cc2)cc1	5.09 µM
O=C([O-])c1ccc2c(c1)-c1nc-2nc2[n-]c(nc3nc(nc4[n-]c(n1)c1ccc(C(=O)[O-])cc41)-c1cc(C(=O)[O-])ccc1-3)c1ccc(C(=O)[O-])cc21.[Fe+2]	> 50 µM
COc1ccc(-c2cnc(-c3ccc(F)cc3)[nH]2)cc1	8.34 µM
C#CCN1CCN(C(=S)N/N=C(\C)c2ccccn2)CC1	2.39 µM
O=C1/C(=C/c2ccccc2)SC(=Nc2ccccc2)N1Nc1ccccc1	5.48 µM

Just so you know, measured GI50 for `COc1cc(/C=C/C(=O)c2cc(F)c(Cl)cc2Cl)cc(OC)c1OC` came out at 27.7 µM
